Where do these numbers come from? They come from patent US11535598B2.

- System: LNCap
- measurement-conditions: human, 72 h
measured-metric: IC50 (µM)

Previously resolved entries follow.
mol: O=C(NO)c1ccc(Cn2c(=O)n(Cc3ccccc3)c(=O)c3ccccc32)cc1
IC50 [µM]: 2.93
--
mol: O=C(NO)c1ccc(Cn2c(=O)n(CCc3cccc(F)c3)c(=O)c3ccccc32)cc1
IC50 [µM]: 0.96

(I) O=C(NO)c1cccc(Cn2c(=O)n(CCc3ccccc3)c(=O)c3ccccc32)c1
(II) O=C(NO)c1cc(Cn2c(=O)n(CCc3ccccc3)c(=O)c3ccccc32)cs1
Q: Dear colleague, could you let me know whether I or II has the lower recorded IC50? Thanks. Write the label of whichever entry you select.
A: I
(I: 3.4 µM, II: 5.77 µM)
